Measured log10 of CC50 accompanies every entry in the list below.
system: MT4; experiment: Cytotoxicity against human MT4 cells assessed as decrease in cell viability after 5 days by MTT assay; assay type: cell-based; conditions: mt4, 120 h
The common logarithm of CC50 in µM is what is listed.

Some solved entries appear below for comparison.
| Item Smiles | Reported Measurement |
| --- | --- |
| Cc1ccc(Cn2cc(CNC(=O)c3cnc(Nc4ccc(C#N)cc4)cc3Oc3c(C)cc(C)cc3C)nn2)cc1 | 2.22 |
| COC(=O)Cn1cc(CNC(=O)c2cnc(Nc3ccc(C#N)cc3)cc2Oc2c(C)cc(C)cc2C)nn1 | 1.14 |
| Cc1cc(C)c(Oc2cc(Nc3ccc(C#N)cc3)ncc2C(=O)NCc2cn(CC(=O)N3CCOCC3)nn2)c(C)c1 | 2.26 |
| Cc1cc(C)c(Oc2cc(Nc3ccc(C#N)cc3)ncc2C(=O)NCc2cn(CCC#N)nn2)c(C)c1 | 1.60 |

Consider the record given below.
stdin: Could you please provide reported log10 of CC50 for `Cc1cc(C)c(Oc2cc(Nc3ccc(C#N)cc3)ncc2C(=O)NCc2cn(CC(=O)N3CCCC3)nn2)c(C)c1` ? Thanks!
stdout: 1.76
